- assayed system: Human recombinant MMP-13 (Homo sapiens)
- Construct: made in house; host or cells: baculovirus / insect cells
- experimental protocol: In vitro MMP inhibition, IC50 determination (fluorogenic substrate I)
- Assay type: biochemical
- study conditions: value outside parentheses (Ki in parenthesis)
pIC50: −log10 of the molar value.
Binary classification by pIC50, with 8 as an inclusive lower bound for fulfilled; all other cases are not fulfilled.

compound_structure=O=C(NCCCOc1ccc(S(=O)(=O)C2(C(=O)NO)CCOCC2)cc1)c1ccc(-c2ccccc2)cc1 discrete_label=fulfilled
compound_structure=O=C(c1cccc(C(F)(F)F)c1)N1CC[C@@H](Oc2ccc(S(=O)(=O)C3(C(=O)NO)CCOCC3)cc2)C1 discrete_label="not fulfilled"
compound_structure=COc1ccc(CCCOc2ccc(S(=O)(=O)C3(C(=O)NO)CCOCC3)cc2)cc1 discrete_label=fulfilled
compound_structure=O=C(NO)C1(S(=O)(=O)c2ccc(OCCSc3nc4ccccc4o3)cc2)CCOCC1 discrete_label=fulfilled
compound_structure=CCCCOCCCNc1ccc(S(=O)(=O)C2(C(=O)NO)CCOCC2)cc1 discrete_label="not fulfilled"
compound_structure=CN(C)c1ccc(C(=O)NCCCOc2ccc(S(=O)(=O)C3(C(=O)NO)CCN(C4CC4)CC3)cc2)cc1 discrete_label=fulfilled
compound_structure=C[C@@H]1[C@H](c2ccccc2)OC(=O)N1CCCOc1ccc(S(=O)(=O)C2(C(=O)NO)CCOCC2)cc1 discrete_label=fulfilled
compound_structure=CC(C)N(Cc1ccc(C(=O)CCCCOc2ccc(S(=O)(=O)C3(C(=O)NO)CCOCC3)cc2)cc1)C(C)C discrete_label=fulfilled
compound_structure=Cc1cc(-c2nnc(CCCOc3ccc(S(=O)(=O)C4(C(=O)NO)CCOCC4)cc3)o2)ccc1OC(C)C discrete_label=fulfilled
compound_structure=NS(=O)(=O)CCCOc1ccc(S(=O)(=O)C2(C(=O)NO)CCOCC2)cc1 discrete_label="not fulfilled"
compound_structure=COc1ccc(CC(=O)CCCOc2ccc(S(=O)(=O)C3(C(=O)NO)CCOCC3)cc2)cc1 discrete_label=fulfilled
compound_structure=O=C(CCCOc1ccc(S(=O)(=O)C2(C(=O)NO)CCOCC2)cc1)c1ccc(-c2ccccc2)cc1 discrete_label=fulfilled

###

- assayed system: Human recombinant MMP-1 (Homo sapiens)
- Construct: made in house; host or cells: MMP-1-transfected HT-1080 cells (spent media)
- Sequence (P03956 100-469): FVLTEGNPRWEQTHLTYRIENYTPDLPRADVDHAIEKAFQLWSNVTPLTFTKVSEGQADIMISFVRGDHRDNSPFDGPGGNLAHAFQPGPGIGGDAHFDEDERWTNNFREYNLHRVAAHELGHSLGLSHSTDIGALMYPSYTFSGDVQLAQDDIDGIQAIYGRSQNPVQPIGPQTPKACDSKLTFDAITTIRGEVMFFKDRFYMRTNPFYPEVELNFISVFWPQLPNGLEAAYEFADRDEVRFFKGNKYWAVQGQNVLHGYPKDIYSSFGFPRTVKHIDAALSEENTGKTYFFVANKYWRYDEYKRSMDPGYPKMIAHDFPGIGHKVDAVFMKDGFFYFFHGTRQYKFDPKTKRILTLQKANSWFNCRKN
- experimental protocol: In vitro MMP inhibition, IC50 determination (fluorogenic substrate I)
- Type: biochemical
- study conditions: value outside parentheses (Ki in parenthesis)
- Protocol: Several hydroxamates and salts thereof were analyzed in in vitro assays to determine their ability to inhibit the MMP cleavage of peptide substrates. Inhibition (Ki) and IC50 constants were calculated from the assayed hydroxamate-MMP interactions. […] The assays from which the IC50 determinations were made were performed as follows. […] The assayed hydroxamate samples were, incubated in Microfluorrm White Plates (Dynatech, Chantilly, VA) and analyzed on a Perkin Elmer L550 plate reader (Norwalk, Conn.). […]
pIC50: −log10 of the molar value.
pIC50: recorded values
property name: pIC50

molecule=O=C(NO)C1(S(=O)(=O)c2ccc(OCCCSCc3ccccc3)cc2)CCOCC1 assayed_system="Human recombinant MMP-1 (Homo sapiens)" property_name=pIC50 obs_value="< 5.00"
molecule=O=C(NO)C1(S(=O)(=O)c2ccc(OCCCOc3ccc(C(F)(F)F)cc3)cc2)CCN(C2CC2)CC1 assayed_system="Human recombinant MMP-1 (Homo sapiens)" property_name=pIC50 obs_value="< 5.00"
molecule="CCCC(=O)C(C)CCOc1ccc(S(=O)(=O)C2(C(=O)NO)CCOCC2)cc1 (stereo not drawn)" assayed_system="Human recombinant MMP-1 (Homo sapiens)" property_name=pIC50 obs_value="< 5.00"

###

- assayed system: Human recombinant MMP-2 (Homo sapiens)
- Construct: made in house; host or cells: MMP-2-transfected p2AHT2 cells
- experimental protocol: In vitro MMP inhibition, IC50 determination (fluorogenic substrate I)
- Type: biochemical
- study conditions: value outside parentheses
- Procedure: Several hydroxamates and salts thereof were analyzed in in vitro assays to determine their ability to inhibit the MMP cleavage of peptide substrates. Inhibition (Ki) and IC50 constants were calculated from the assayed hydroxamate-MMP interactions. […] The assays from which the IC50 determinations were made were performed as follows. […] The assayed hydroxamate samples were, incubated in Microfluorrm White Plates (Dynatech, Chantilly, VA) and analyzed on a Perkin Elmer L550 plate reader (Norwalk, Conn.). […]
// IC50 lookup, one value per entry
property name: IC50 (nM)

molecule="O=C(NO)C1(S(=O)(=O)c2ccc(OCCCc3cc(-c4ccc(F)cc4F)cs3)cc2)CCOCC1 [Example 587]" assayed_system="Human recombinant MMP-2 (Homo sapiens)" obs_value=81.7
molecule="O=C(NCCOc1ccc(S(=O)(=O)C2(C(=O)NO)CCOCC2)cc1)c1cc2ccccc2s1 [Example 619]" assayed_system="Human recombinant MMP-2 (Homo sapiens)" obs_value=66.2
molecule="CC(C)Oc1cccc(NC(=O)CCCOc2ccc(S(=O)(=O)C3(C(=O)NO)CCOCC3)cc2)c1 [Example 583]" assayed_system="Human recombinant MMP-2 (Homo sapiens)" obs_value=15.7
molecule="COc1cc2c(cc1OC)CN(C(=O)NCCCOc1ccc(S(=O)(=O)C3(C(=O)NO)CCOCC3)cc1)CC2 [Example 496]" assayed_system="Human recombinant MMP-2 (Homo sapiens)" obs_value=242
molecule="O=C(CCCOc1ccc(S(=O)(=O)C2(C(=O)NO)CCOCC2)cc1)N1CC[C@@H](c2ccccc2)[C@@H](O)C1 [Example 652]" assayed_system="Human recombinant MMP-2 (Homo sapiens)" obs_value=76.6
molecule="COCCN1CCC(C(=O)NO)(S(=O)(=O)c2ccc(OCCCSc3nc4ccccc4s3)cc2)CC1 [Example 615]" assayed_system="Human recombinant MMP-2 (Homo sapiens)" obs_value=1.1
molecule="CC(C)Cc1cccc(CCCOc2ccc(S(=O)(=O)C3(C(=O)NO)CCOCC3)cc2)c1 [Example 640]" assayed_system="Human recombinant MMP-2 (Homo sapiens)" obs_value=324
molecule="O=C(NCCSc1ccc(S(=O)(=O)C2(C(=O)NO)CCOCC2)cc1)c1cc2ccccc2s1 [Example 597]" assayed_system="Human recombinant MMP-2 (Homo sapiens)" obs_value=471
molecule="O=C(NO)C1(S(=O)(=O)c2ccc(OCCCOCc3ccccn3)cc2)CCOCC1 [Example 519]" assayed_system="Human recombinant MMP-2 (Homo sapiens)" obs_value=170
molecule="O=C(NO)C1(S(=O)(=O)c2ccc(OCCCc3cccc(-c4cccc5ccccc45)c3)cc2)CCOCC1 [Example 638]" assayed_system="Human recombinant MMP-2 (Homo sapiens)" obs_value=4400
molecule="CC(=O)c1ccc(OCCOc2ccc(S(=O)(=O)C3(C(=O)NO)CCOCC3)cc2)cc1 [Example 659]" assayed_system="Human recombinant MMP-2 (Homo sapiens)" obs_value=3.91
molecule="O=C(CCCOc1ccc(S(=O)(=O)C2(C(=O)NO)CCOCC2)cc1)Nc1cccc(I)c1 [Example 570]" assayed_system="Human recombinant MMP-2 (Homo sapiens)" obs_value=4.8
molecule="CC(=O)Nc1cccc(OCCOc2ccc(S(=O)(=O)C3(C(=O)NO)CCOCC3)cc2)c1 [Example 670]" assayed_system="Human recombinant MMP-2 (Homo sapiens)" obs_value=163
molecule="COc1ccc(-c2nnc(CCCOc3ccc(S(=O)(=O)C4(C(=O)NO)CCOCC4)cc3)o2)cc1 [Example 501]" assayed_system="Human recombinant MMP-2 (Homo sapiens)" obs_value=184
molecule="O=C(NCCCOc1ccc(S(=O)(=O)C2(C(=O)NO)CCN(C3CC3)CC2)cc1)C1C2CC3CC(C2)CC1C3 (stereo not drawn) [Example 643]" assayed_system="Human recombinant MMP-2 (Homo sapiens)" obs_value=1130
molecule="O=C(NO)C1(S(=O)(=O)c2ccc(OCCSc3nc4ccc(Cl)cc4o3)cc2)CCOCC1 [Example 502]" assayed_system="Human recombinant MMP-2 (Homo sapiens)" obs_value=22.7
molecule="O=C(Cc1ccc(-c2ccc(Cl)cc2)s1)NCCOc1ccc(S(=O)(=O)C2(C(=O)NO)CCOCC2)cc1 [Example 618]" assayed_system="Human recombinant MMP-2 (Homo sapiens)" obs_value=822
molecule="O=C(NO)C1(S(=O)(=O)c2ccc(OCCCc3cccc(-c4ccc(C(F)(F)F)cc4)c3)cc2)CCOCC1 [Example 625]" assayed_system="Human recombinant MMP-2 (Homo sapiens)" obs_value=3500

###

- assayed system: Human recombinant MMP-2 (Homo sapiens)
- Construct: made in house; host or cells: MMP-2-transfected p2AHT2 cells
- Sequence (P08253 110-660): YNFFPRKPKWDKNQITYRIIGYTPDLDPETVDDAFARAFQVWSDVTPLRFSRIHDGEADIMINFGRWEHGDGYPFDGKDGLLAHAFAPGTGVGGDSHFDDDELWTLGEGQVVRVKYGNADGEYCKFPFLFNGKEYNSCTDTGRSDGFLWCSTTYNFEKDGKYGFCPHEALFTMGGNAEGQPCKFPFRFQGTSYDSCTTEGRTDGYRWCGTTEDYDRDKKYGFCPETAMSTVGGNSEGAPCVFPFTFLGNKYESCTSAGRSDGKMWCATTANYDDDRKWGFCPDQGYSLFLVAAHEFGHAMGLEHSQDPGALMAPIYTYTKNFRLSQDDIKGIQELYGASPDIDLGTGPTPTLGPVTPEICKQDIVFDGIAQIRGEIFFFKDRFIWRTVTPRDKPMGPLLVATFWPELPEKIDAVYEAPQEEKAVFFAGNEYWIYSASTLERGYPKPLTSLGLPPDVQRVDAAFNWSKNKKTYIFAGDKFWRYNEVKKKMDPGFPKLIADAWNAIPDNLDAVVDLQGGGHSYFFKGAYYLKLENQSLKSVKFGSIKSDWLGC
- experimental protocol: In vitro MMP inhibition, IC50 determination (fluorogenic substrate I)
- Type: biochemical
- study conditions: value outside parentheses
pIC50: −log10 of the molar value.
Measured pIC50 values are reported for all entries that follow.
property name: pIC50

compound_structure=Cn1cnc(CC(=O)NCCOc2ccc(S(=O)(=O)C3(C(=O)NO)CCOCC3)cc2)c1 assayed_system="Human recombinant MMP-2 (Homo sapiens)" property_name=pIC50 comparator== obs_value=7.18
compound_structure=O=C(CCCOc1ccc(S(=O)(=O)C2(C(=O)NO)CCOCC2)cc1)c1ccccc1 assayed_system="Human recombinant MMP-2 (Homo sapiens)" property_name=pIC50 comparator== obs_value=8.46
compound_structure=O=C(NO)C1(S(=O)(=O)c2ccc(OCCCc3nc(-c4ccccc4)no3)cc2)CCOCC1 assayed_system="Human recombinant MMP-2 (Homo sapiens)" property_name=pIC50 comparator== obs_value=7.14
compound_structure=O=C(NCCOc1ccc(S(=O)(=O)C2(C(=O)NO)CCOCC2)cc1)c1cc2ccccc2[nH]1 assayed_system="Human recombinant MMP-2 (Homo sapiens)" property_name=pIC50 comparator=> obs_value=10.00

This collection of values is drawn from patent US20040024024A1.
